Source listed as PubChem BioAssay AID1159607.

- Tested on: RMI core complex (RMI1/RMI2) binding to FANCM MM2 peptide, human
- protocolSummary: disruptors of RMI1/RMI2 association with MM2 peptide – biochemical, fluorescence polarization, human, primary screen (AID 1159607)
- protocolConditions: RMI core complex with F-MM2 peptide, at 33 µM
The campaign covered roughly 70,000 compounds. About 400 (0.57%) were called active. Rule as the data show it: active = FP signal below about 40; inactive = the rest. The entries come from a sample that favours actives as a whole.
Classes used: yes (active), no (inactive)

| molecule | categoryLabel |
| --- | --- |
| Cn1c(SCC(=O)NCc2ccc(F)cc2)nc2cc(-c3ccccc3)sc2c1=O | no |
| Cn1nccc1-c1nnc(NC(=O)c2c(F)cccc2Cl)o1 | no |
| Cc1ccc(C)c(NC(=O)CCS(=O)(=O)c2ccccc2)c1 | no |
| CC[N+](C)(CC)CCC[n+]1c(-c2ccccc2)c2cc(N)ccc2c2ccc(N)cc21 | yes |
| CC1CCc2c(sc(NC(=O)c3cccc([N+](=O)[O-])c3)c2C#N)C1 (stereo unspecified) | no |
| C=Cc1cc2ccc(C)cc2nc1Cl | no |

* * *

- System: RMI core complex (RMI1/RMI2) binding to FANCM MM2 peptide, human
- protocolSummary: disruptors of RMI1/RMI2 association with MM2 peptide – biochemical, fluorescence polarization, human, primary screen (AID 1159607)
- protocolConditions: RMI core complex with F-MM2 peptide, at 33 µM, stronger effect = lower value
Screen size: about 70,000 compounds; about 400 (0.57%) were called active. This excerpt belongs to a sample that is enriched for actives.

| compound | FP signal (polarization) |
| --- | --- |
| O=C(CSc1nnc(NC(=O)c2ccc(Br)o2)s1)Nc1cc(C(F)(F)F)ccc1Cl | 64 |
| Clc1ccc(C=Nc2cccnc2)c(Cl)c1 | 63 |
| COc1ccc(Cl)c2sc(NC(=O)C3CCCN(S(C)(=O)=O)C3)nc12 (configuration not stated) | 63 |
| Clc1ccc(-c2csc(-c3ccncc3)n2)cc1 | 51 |
| O=C(Nc1ccc(Br)cc1)Nc1c[nH]c2ccccc12 | 56 |
| CSc1ccc2nc(NC(=O)c3ccc(S(=O)(=O)N4CCc5ccccc5C4)cc3)sc2c1 | 70 |
| O=C1NC(=O)c2cc(S(=O)(=O)N(CCO)CCO)cc3cccc1c23 | 56 |
| O=C(Nc1cc2ccccc2cc1NC(=O)c1ccc(N2C(=O)CCC2=O)cc1)c1ccc(N2C(=O)CCC2=O)cc1 | 57 |
| CCOC(=O)Cn1c(=NC(=O)c2ccnn2C)sc2cc(C(C)C)ccc21 | 69 |
| Cc1cccnc1N=Cc1cc(Cl)cc(Cl)c1O | 29 |
| O=C(Nc1ccc([N+](=O)[O-])cc1)Nc1nc(-c2nc3ccccc3s2)cs1 | 65 |
| COc1ccc(Cl)c2sc(NNC(=O)c3ccc(S(=O)(=O)N4CCc5ccccc5C4)cc3)nc12 | 11 |
| Oc1ccc(Br)cc1C=Nc1ccccn1 | 41 |
| O=C(NCCC1=CCCCC1)C(=O)NCC(c1ccco1)N1CCOCC1 (configuration not stated) | 57 |
| Cc1ccc(S(=O)(=O)NCCCCCC(=O)Nc2ccncc2)cc1 | 56 |
| COc1ccc(-c2cc(C(F)(F)F)n3nc(C(=O)Nc4cc5c(cc4[N+](=O)[O-])OCCO5)cc3n2)cc1 | 37 |
| CCc1cc(C(=O)c2ccc(OC)cc2)c(NC(=O)CN2CCN(C)CC2)s1 | 69 |
| COc1cccc2cc(C(=O)Nc3ccc4nc(N5CCN(C)CC5)sc4c3)oc12 | 64 |
| COc1ccc(OC)c(-c2cc3ccc(O)c(CN4CCN(C)CC4)c3oc2=O)c1 | 37 |
| COc1ccc(C)c2sc(N(Cc3cccnc3)C(=O)/C=C/c3ccccc3)nc12 | 55 |
| CN1C(=O)c2ccc(NC(=O)c3ccn(C)n3)cc2C1=O | 71 |
| c1ccc(-c2nc(SCc3nc4ccccc4[nH]3)oc2-c2ccccc2)cc1 | 64 |

* * *

- System: RMI core complex (RMI1/RMI2) binding to FANCM MM2 peptide, human
- protocolSummary: disruptors of RMI1/RMI2 association with MM2 peptide – biochemical, fluorescence polarization, human, primary screen (AID 1159607)
- protocolConditions: RMI core complex with F-MM2 peptide, at 33 µM, stronger effect = lower value
Among all 70,000 compounds or so, about 400 (0.57%) were called active. Only a selection was taken, and actives are over-represented in it overall.

| molecule | FP signal (polarization) |
| --- | --- |
| CC1CCCCC1NC(=O)C(=O)c1cn(CC(=O)N2CCCCC2)c2ccccc12 (stereo not given) | 56 |
| O=C(c1ccc(=O)n(Cc2cccc(F)c2)n1)N1CCN(Cc2ccccc2)CC1 | 59 |
| C=CCn1c(SCCC(=O)Nc2scc(-c3ccc(Cl)cc3)c2C(=O)OCC)nc2sc3c(c2c1=O)CCC(C)C3 (stereo not given) | 84 |
| CCOc1ccc(-c2noc(-c3cc(-c4cc(C)ccc4C)n[nH]3)n2)cc1OC | 95 |
| O=C(Cn1cnc(-c2ccc(F)cc2)cc1=O)N1CCN(c2cccc(Cl)c2)CC1 | 70 |

* * *

- Test system: RMI core complex (RMI1/RMI2) binding to FANCM MM2 peptide, human
- protocolSummary: disruptors of RMI1/RMI2 association with MM2 peptide – biochemical, fluorescence polarization, human, primary screen (AID 1159607)
- protocolConditions: RMI core complex with F-MM2 peptide, at 33 µM
The campaign covered roughly 70,000 compounds. About 400 (0.57%) were called active. Rule as the data show it: active = FP signal below about 40; inactive = the rest. Shown is part of a subset that was picked to be rich in actives.
Classes used: active, inactive

| compound | measurementTarget | categoryLabel |
| --- | --- | --- |
| COc1ccc(-c2cc(=O)n(CC(=O)N3CCN(c4ccccc4OC)CC3)cn2)cc1 | RMI core complex (RMI1/RMI2) binding to FANCM MM2 peptide, human | inactive |
| N#CC(C#N)=C1SCN(c2cccc(Cl)c2)CS1 | RMI core complex (RMI1/RMI2) binding to FANCM MM2 peptide, human | active |
| CCCC(=O)Oc1c(Cl)cc(N(C(=O)CCC)S(=O)(=O)c2ccc(C)cc2)cc1Cl | RMI core complex (RMI1/RMI2) binding to FANCM MM2 peptide, human | inactive |
| COC(=O)c1c(NC(=O)CCS(=O)(=O)c2ccc(Cl)cc2)sc2c1CCC(C)C2 (stereo not given) | RMI core complex (RMI1/RMI2) binding to FANCM MM2 peptide, human | inactive |
| Cc1ccnc(NS(=O)(=O)c2ccc(NC(=O)c3ccc([N+](=O)[O-])o3)cc2)n1 | RMI core complex (RMI1/RMI2) binding to FANCM MM2 peptide, human | inactive |
| Cc1cccn2c(=O)c(/C=C3\SC(=S)N(C)C3=O)c(NCc3ccc4c(c3)OCO4)nc12 | RMI core complex (RMI1/RMI2) binding to FANCM MM2 peptide, human | inactive |
| O=C(CC1CCCCN1S(=O)(=O)c1cccs1)Nc1ncccn1 (stereo not given) | RMI core complex (RMI1/RMI2) binding to FANCM MM2 peptide, human | inactive |
| COc1ccc2nc(-c3ccc(NC(=O)c4c(F)cccc4Cl)cc3)cn2n1 | RMI core complex (RMI1/RMI2) binding to FANCM MM2 peptide, human | inactive |
| Cc1[nH]c(=O)[nH]c(=O)c1CCC(=O)Nc1ccc(F)c(Cl)c1 | RMI core complex (RMI1/RMI2) binding to FANCM MM2 peptide, human | inactive |
| O=C(COc1ccc(Cl)cc1Cl)Nc1nnc(SCC(=O)Nc2nnc(-c3cccc([N+](=O)[O-])c3)s2)s1 | RMI core complex (RMI1/RMI2) binding to FANCM MM2 peptide, human | active |
| CCc1ccccc1NC(=O)C(=O)NCCCN1CCOC(c2ccccc2)C1 (stereo not given) | RMI core complex (RMI1/RMI2) binding to FANCM MM2 peptide, human | inactive |
| CCOC(=O)c1c(NC(=O)c2ccc(C(=O)OC)cc2)sc2c1CCC2 | RMI core complex (RMI1/RMI2) binding to FANCM MM2 peptide, human | inactive |
| Cc1cccc(NC(=O)Nc2ccc(Nc3ccc(-n4cccn4)nn3)cc2)c1C | RMI core complex (RMI1/RMI2) binding to FANCM MM2 peptide, human | inactive |
| CN(C)C(C#N)c1cccc(Cl)c1Cl (stereo not given) | RMI core complex (RMI1/RMI2) binding to FANCM MM2 peptide, human | inactive |
| CCN1CCOc2ccc(NC(=O)c3cc4ccccc4oc3=O)cc2C1=O | RMI core complex (RMI1/RMI2) binding to FANCM MM2 peptide, human | inactive |
| OCc1cnc(SCc2ccc(Cl)c(Cl)c2)n1Cc1ccc(F)cc1 | RMI core complex (RMI1/RMI2) binding to FANCM MM2 peptide, human | inactive |
| O=C(COc1ccc(Cl)cc1)Nc1ccc2c(c1)C(=O)NCCO2 | RMI core complex (RMI1/RMI2) binding to FANCM MM2 peptide, human | inactive |
| CCc1nnc(C2CCN(S(C)(=O)=O)CC2)s1 | RMI core complex (RMI1/RMI2) binding to FANCM MM2 peptide, human | inactive |
| CCCC(=O)Nc1cc(-c2cn3nc(OC)ccc3n2)ccc1OC | RMI core complex (RMI1/RMI2) binding to FANCM MM2 peptide, human | inactive |
| O=C(NCCN1CCN(c2ccc(F)cc2)CC1)C(=O)NC1CC1 | RMI core complex (RMI1/RMI2) binding to FANCM MM2 peptide, human | inactive |
| Cc1cc(C)c2nc(N(CCN(C)C)C(=O)/C=C/c3cccs3)sc2c1 | RMI core complex (RMI1/RMI2) binding to FANCM MM2 peptide, human | inactive |
| COC(CC(=O)O)c1nc2ccccc2s1 (stereo not given) | RMI core complex (RMI1/RMI2) binding to FANCM MM2 peptide, human | inactive |
| Cc1ccc(S(=O)(=O)/C(C#N)=C/N2CCN(c3cccc(Cl)c3)CC2)cc1C | RMI core complex (RMI1/RMI2) binding to FANCM MM2 peptide, human | inactive |
| COCCN1C(=O)C2N=NN(c3ccccc3)C2C1=O (stereo not given) | RMI core complex (RMI1/RMI2) binding to FANCM MM2 peptide, human | inactive |
| COc1ccc(Cl)cc1C(=O)Nc1nnc(-c2cccc([N+](=O)[O-])c2)s1 | RMI core complex (RMI1/RMI2) binding to FANCM MM2 peptide, human | inactive |
| COc1ccc(CCS(=O)(=O)Nc2ccc3c(c2)N(C)C(=O)C(C)(C)CO3)cc1 | RMI core complex (RMI1/RMI2) binding to FANCM MM2 peptide, human | inactive |
| O=C(NCc1cccs1)C(=O)N1CCN(c2cccc(Cl)c2)CC1 | RMI core complex (RMI1/RMI2) binding to FANCM MM2 peptide, human | inactive |
| CN(C)c1ccc(C=NS(=O)(=O)c2cccs2)cc1 | RMI core complex (RMI1/RMI2) binding to FANCM MM2 peptide, human | inactive |
| O=C(C1=C(O)C(=O)N(CCCN2CCOCC2)C1c1ccco1)c1cccs1 (stereo not given) | RMI core complex (RMI1/RMI2) binding to FANCM MM2 peptide, human | inactive |
| CCN1C(=O)Cc2cc(NC(=O)c3ccc(F)c(F)c3)ccc21 | RMI core complex (RMI1/RMI2) binding to FANCM MM2 peptide, human | inactive |
| COc1ccc(CC(=O)Nc2ccc(SCC(=O)N3CCCC3)nn2)cc1OC | RMI core complex (RMI1/RMI2) binding to FANCM MM2 peptide, human | inactive |
| Cc1ccc(C(=O)CSc2nnc3ccc4ccccc4n23)cc1C | RMI core complex (RMI1/RMI2) binding to FANCM MM2 peptide, human | inactive |
| O=C(CSc1nnc2ccc(-c3cccs3)nn12)NCCc1ccccc1 | RMI core complex (RMI1/RMI2) binding to FANCM MM2 peptide, human | inactive |
| CC(=O)SCC(=O)Nc1sccc1C#N | RMI core complex (RMI1/RMI2) binding to FANCM MM2 peptide, human | inactive |
| COc1ccccc1/C=C/C(=O)NC(=S)N1CCCC1 | RMI core complex (RMI1/RMI2) binding to FANCM MM2 peptide, human | inactive |
| COc1ccc(-c2nc(NC(=O)c3cccc(NS(=O)(=O)c4ccccc4)c3)sc2C)cc1 | RMI core complex (RMI1/RMI2) binding to FANCM MM2 peptide, human | inactive |
| Cc1cccc(NC(=O)Cn2c(C)cc(C)c(-c3nc(-c4ccc(F)cc4)no3)c2=O)c1C | RMI core complex (RMI1/RMI2) binding to FANCM MM2 peptide, human | inactive |
| Cc1ccc2c(c1)nnc1nnc(SCC(=O)O)n12 | RMI core complex (RMI1/RMI2) binding to FANCM MM2 peptide, human | active |
| Cc1cc(NC(=O)/C=C/c2ccccc2)n(C(C)C)n1 | RMI core complex (RMI1/RMI2) binding to FANCM MM2 peptide, human | inactive |
| O=C(CN1C(=O)c2ccccc2C1=O)Nc1nnc(-c2ccco2)o1 | RMI core complex (RMI1/RMI2) binding to FANCM MM2 peptide, human | inactive |
| O=C(O)/C=C/C(=O)Nc1ccc(Oc2ccc(Cl)cc2)cc1 | RMI core complex (RMI1/RMI2) binding to FANCM MM2 peptide, human | inactive |
| COc1ccc(C(=O)Nc2nc(-c3ccccc3)c(C)s2)cc1 | RMI core complex (RMI1/RMI2) binding to FANCM MM2 peptide, human | active |
| SCCc1nc2ccccc2[nH]1 | RMI core complex (RMI1/RMI2) binding to FANCM MM2 peptide, human | inactive |
| CCSc1cccc(C(=O)Nc2ccc3nc(C)sc3c2)c1 | RMI core complex (RMI1/RMI2) binding to FANCM MM2 peptide, human | inactive |
| COc1cc(-c2nnc(NC(=O)c3ccc([N+](=O)[O-])cc3)o2)cc(OC)c1OC | RMI core complex (RMI1/RMI2) binding to FANCM MM2 peptide, human | inactive |
